# Tested on: HCT-116 colon carcinoma
# procedure-details: Inhibition of cell proliferation (14C-thymidine incorporation), HCT116
# Assay type: cell-based, human
# run-conditions: Homo sapiens, HCT-116
result-type: IC50

// known answers, use as guide
CN1CCN(CCC(=O)NS(=O)(=O)c2ccc(Nc3nc(N)n(C(=O)c4c(F)cccc4F)n3)cc2)CC1 [Compound 5] : > 10 µM
Nc1nc(Nc2ccc(S(=O)(=O)NC(=O)COCCOCCOCC(=O)O)cc2)nn1C(=O)c1c(F)cccc1F [Compound 12] : > 10 µM
CCCCC(=O)NS(=O)(=O)c1ccc(Nc2nc(N)n(C(=O)c3c(F)cccc3F)n2)cc1 [Compound 18] : > 100 µM
Nc1nc(Nc2ccc(S(=O)(=O)NC(=O)Cn3cnnn3)cc2)nn1C(=O)c1c(F)cccc1F [Compound 4] : > 100 µM
Nc1nc(Nc2ccc(S(=O)(=O)NC(=O)CCCC(=O)O)cc2)nn1C(=O)c1c(F)cccc1F [Compound 11] : > 100 µM
Nc1nc(Nc2ccc(S(=O)(=O)NC(=O)CCC(=O)O)cc2)nn1C(=O)c1c(F)cccc1F [Compound 1] : > 100 µM
COCCOCCOCC(=O)NS(=O)(=O)c1ccc(Nc2nc(N)n(C(=O)c3c(F)cccc3F)n2)cc1 [Compound 9] : > 100 µM

We now examine a further molecule.
COCCOCC(=O)NS(=O)(=O)c1ccc(Nc2nc(N)n(C(=O)c3c(F)cccc3F)n2)cc1 [Compound 3] on HCT-116 colon carcinoma gives IC50 = > 10 µM

---

# assay-system: HER2 (Homo sapiens, UniProt P04626)
# Construct: polyhistidine (N)
# Sequence (P04626 676-1255 limits assumed): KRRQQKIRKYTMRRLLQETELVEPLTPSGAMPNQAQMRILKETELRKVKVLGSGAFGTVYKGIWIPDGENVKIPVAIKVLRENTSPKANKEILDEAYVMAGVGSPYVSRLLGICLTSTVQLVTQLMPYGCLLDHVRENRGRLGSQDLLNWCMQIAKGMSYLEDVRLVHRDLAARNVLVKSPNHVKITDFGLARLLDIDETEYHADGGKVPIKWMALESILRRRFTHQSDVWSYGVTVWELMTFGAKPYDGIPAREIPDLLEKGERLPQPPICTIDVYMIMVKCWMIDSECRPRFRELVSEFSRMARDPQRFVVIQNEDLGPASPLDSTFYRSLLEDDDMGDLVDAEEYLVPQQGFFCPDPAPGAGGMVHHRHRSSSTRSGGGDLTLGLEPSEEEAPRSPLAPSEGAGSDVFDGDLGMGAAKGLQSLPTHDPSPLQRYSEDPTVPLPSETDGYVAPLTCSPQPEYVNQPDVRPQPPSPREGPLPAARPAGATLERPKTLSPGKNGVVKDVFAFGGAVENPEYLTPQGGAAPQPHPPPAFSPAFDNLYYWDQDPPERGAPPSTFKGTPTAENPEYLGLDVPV
# procedure-details: HER2 Kinase Screening Assay
# Assay type: biochemical
# run-conditions: 10 μM ATP; >10 or >100 = less than 50% inhibition at highest concentration tested
I'd be grateful if you could share measured IC50 for these entries.

// known answers, use as guide
Nc1nc(Nc2ccc(S(=O)(=O)NC(=O)CCN3CCOCC3)cc2)nn1C(=O)c1c(F)cccc1F : > 100 µM
NCC(=O)NS(=O)(=O)c1ccc(Nc2nc(N)n(C(=O)c3c(F)cccc3F)n2)cc1 : ≥ 10 µM

We now examine a further compound.
Record CCCC(=O)NS(=O)(=O)c1ccc(Nc2nc(N)n(C(=O)c3c(F)cccc3F)n2)cc1 , field IC50: 5 µM

---

# assay-system: CDK1:Cyclin-B (Homo sapiens, UniProt P06493)
# Construct: purchased New England Biolabs, Beverly, Mass; 6020; host or cells: insect cells
# Sequence (P06493 whole entry): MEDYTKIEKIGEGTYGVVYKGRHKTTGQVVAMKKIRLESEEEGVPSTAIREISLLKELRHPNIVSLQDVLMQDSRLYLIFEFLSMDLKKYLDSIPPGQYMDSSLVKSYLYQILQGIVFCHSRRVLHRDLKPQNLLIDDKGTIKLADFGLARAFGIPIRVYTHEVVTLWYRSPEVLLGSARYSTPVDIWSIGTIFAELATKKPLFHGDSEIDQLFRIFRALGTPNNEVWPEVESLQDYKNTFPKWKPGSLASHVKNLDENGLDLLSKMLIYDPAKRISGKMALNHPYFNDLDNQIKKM
# Sequence (P14635 whole entry partner): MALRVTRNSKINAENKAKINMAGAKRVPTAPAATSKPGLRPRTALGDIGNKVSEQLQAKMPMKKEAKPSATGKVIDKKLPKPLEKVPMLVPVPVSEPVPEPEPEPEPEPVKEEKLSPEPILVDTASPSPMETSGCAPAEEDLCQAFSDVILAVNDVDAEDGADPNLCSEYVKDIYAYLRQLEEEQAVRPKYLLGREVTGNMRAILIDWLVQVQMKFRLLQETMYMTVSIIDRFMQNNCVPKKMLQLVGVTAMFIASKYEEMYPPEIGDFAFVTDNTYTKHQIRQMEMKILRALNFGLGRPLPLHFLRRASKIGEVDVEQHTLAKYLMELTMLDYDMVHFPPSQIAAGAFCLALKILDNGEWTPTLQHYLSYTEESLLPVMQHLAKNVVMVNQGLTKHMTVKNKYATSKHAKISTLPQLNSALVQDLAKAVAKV
# procedure-details: CDK1 Screening Assay (33P-ATP FlashPlate)
# Assay type: biochemical
# run-conditions: 10 μM ATP; >10 or >100 = less than 50% inhibition at highest concentration tested
result-type: IC50 (µM)
Numbers only, in µM.

// known answers, use as guide
Nc1nc(Nc2ccc(S(=O)(=O)NC(=O)CCCC(=O)O)cc2)nn1C(=O)c1c(F)cccc1F [Compound 11] : 12.4
NCC(=O)NS(=O)(=O)c1ccc(Nc2nc(N)n(C(=O)c3c(F)cccc3F)n2)cc1 [Compound 2] : 1.07
CCCCC(=O)NS(=O)(=O)c1ccc(Nc2nc(N)n(C(=O)c3c(F)cccc3F)n2)cc1 [Compound 18] : 1.93
Nc1nc(Nc2ccc(S(=O)(=O)NC(=O)[C@@H](N)CC(=O)O)cc2)nn1C(=O)c1c(F)cccc1F [Compound 17] : 0.98
Nc1nc(Nc2ccc(S(=O)(=O)NC(=O)CCN3CCOCC3)cc2)nn1C(=O)c1c(F)cccc1F [Compound 7] : 1.55

For each of the items listed, what is its IC50?
1. CN1CCN(CCC(=O)NS(=O)(=O)c2ccc(Nc3nc(N)n(C(=O)c4c(F)cccc4F)n3)cc2)CC1 [Compound 5]
2. COCCOCCOCC(=O)NS(=O)(=O)c1ccc(Nc2nc(N)n(C(=O)c3c(F)cccc3F)n2)cc1 [Compound 9]
3. COCCOCC(=O)NS(=O)(=O)c1ccc(Nc2nc(N)n(C(=O)c3c(F)cccc3F)n2)cc1 [Compound 3]
4. C[C@@H](N)C(=O)NS(=O)(=O)c1ccc(Nc2nc(N)n(C(=O)c3c(F)cccc3F)n2)cc1 [Compound 14]
5. COCCOCCOCC(=O)Nc1nc(Nc2ccc(S(N)(=O)=O)cc2)nn1C(=O)c1c(F)cccc1F [Compound 10]

1. 1.34
2. 4.69
3. 1.66
4. 0.74
5. 2.55
